Hello, the source for this data is ChEMBL document CHEMBL4007472, in case you need it.

biological target: Disintegrin and metalloproteinase domain-containing protein 17 (Homo sapiens); assay: Inhibition of TACE in human PBMC assessed as inhibition of TNFalpha production
pIC50: −log10 of the molar value.
METRIC_NAME: pIC50

• CC1(C)SCCN(S(=O)(=O)c2ccc(OCC#CCO)cc2)[C@H]1C(=O)NO = 6.80

* * *

target: Disintegrin and metalloproteinase domain-containing protein 17 (Homo sapiens, UniProt P78536); assay: Inhibition of recombinant TACE catalytic domain (unknown origin) using Abz-LAQAVRSSSR-Dpa as substrate preincubated for 10 mins followed by substrate addition measured after 10 mins by FRET assay; settings: read-out: pIC50 (converted)
Sequence (P78536 whole entry, the tested form may be a part): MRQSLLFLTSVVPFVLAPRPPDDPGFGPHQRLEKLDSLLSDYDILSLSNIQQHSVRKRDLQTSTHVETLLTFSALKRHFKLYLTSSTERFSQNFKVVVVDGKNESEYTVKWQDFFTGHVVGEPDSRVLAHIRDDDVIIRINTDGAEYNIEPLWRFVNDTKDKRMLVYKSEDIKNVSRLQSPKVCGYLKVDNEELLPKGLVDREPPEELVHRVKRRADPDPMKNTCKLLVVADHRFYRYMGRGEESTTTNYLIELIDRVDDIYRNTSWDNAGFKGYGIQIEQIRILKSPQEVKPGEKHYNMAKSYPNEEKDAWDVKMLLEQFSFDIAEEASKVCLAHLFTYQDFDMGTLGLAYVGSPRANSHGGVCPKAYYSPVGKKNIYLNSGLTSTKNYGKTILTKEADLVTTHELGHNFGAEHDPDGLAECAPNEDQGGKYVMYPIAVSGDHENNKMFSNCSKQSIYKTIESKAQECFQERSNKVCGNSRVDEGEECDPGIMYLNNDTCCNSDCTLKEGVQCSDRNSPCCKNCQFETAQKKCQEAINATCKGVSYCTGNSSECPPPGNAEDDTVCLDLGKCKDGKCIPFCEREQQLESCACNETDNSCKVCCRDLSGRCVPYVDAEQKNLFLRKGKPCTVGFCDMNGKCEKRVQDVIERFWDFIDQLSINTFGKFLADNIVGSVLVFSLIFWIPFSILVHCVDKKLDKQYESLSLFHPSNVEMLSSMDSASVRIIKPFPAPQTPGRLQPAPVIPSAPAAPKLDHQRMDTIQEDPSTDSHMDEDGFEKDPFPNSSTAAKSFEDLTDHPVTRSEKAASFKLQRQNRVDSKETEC
Threshold check on IC50: strictly below 3 nM is condition met; on or above 3 nM is condition not met.

* CC[C@]1(C(=O)NO)CCC[C@H]1NS(=O)(=O)c1ccc(OCc2cc(C)nc3ccccc23)cc1 | condition met
* CC[C@]1(C(=O)NO)CCC[C@H]1N(C)S(=O)(=O)c1ccc(OCc2cc(C)nc3ccccc23)cc1 | condition not met
* Cc1cc(COc2ccc(S(=O)(=O)N[C@@H]3CCNC[C@]3(O)C(=O)NO)cc2)c2ccccc2n1 | condition not met
* CCNC(=O)N1C[C@H](C(=O)NO)[C@H](NS(=O)(=O)c2ccc(OCc3cc(C)nc4ccccc34)cc2)C1 (relative stereo) | condition met
* Cc1cc(COc2ccc(S(=O)(=O)N(C)[C@@H]3COC[C@@H]3C(=O)NO)cc2)c2ccccc2n1 (relative stereo) | condition met
* Cc1cc(COc2ccc(S(=O)(=O)N[C@@H]3CCN(C(C)C)C[C@]3(C)C(=O)NO)cc2)c2ccccc2n1 | condition not met
* Cc1cc(COc2ccc(S(=O)(=O)N(C)[C@H]3[C@@H](C(=O)NO)[C@@H]4CC[C@H]3O4)cc2)c2ccccc2n1 | condition met
* Cc1cc(COc2ccc(S(=O)(=O)N[C@@H]3CCOC[C@@]3(C)C(=O)NO)cc2)c2ccccc2n1 | condition not met

* * *

target: Disintegrin and metalloproteinase domain-containing protein 17 (Homo sapiens); assay: Inhibition of TACE in NHEK assessed as reduction in LPS/TPA-stimulated TNFalpha production preincubated for 1 hr followed by LPS/TPA stimulation for 24 hrs by HTRF assay
pIC50: −log10 of the molar value.
METRIC_NAME: pIC50

• Cc1cc(COc2ccc(S(=O)(=O)N3CCN(C(=O)C4CC4)C(C(=O)NO)C3)cc2)c2c(n1)CCCC2 (centres undefined) = 5.51
• CC(=O)N1CCN(S(=O)(=O)c2ccc(OCc3cc(C)nc4c3CCCC4)cc2)CC1C(=O)NO (centres undefined) = 5.04

* * *

target: Disintegrin and metalloproteinase domain-containing protein 17 (Sus scrofa)
Sequence (O77636 whole entry, the tested form may be a part): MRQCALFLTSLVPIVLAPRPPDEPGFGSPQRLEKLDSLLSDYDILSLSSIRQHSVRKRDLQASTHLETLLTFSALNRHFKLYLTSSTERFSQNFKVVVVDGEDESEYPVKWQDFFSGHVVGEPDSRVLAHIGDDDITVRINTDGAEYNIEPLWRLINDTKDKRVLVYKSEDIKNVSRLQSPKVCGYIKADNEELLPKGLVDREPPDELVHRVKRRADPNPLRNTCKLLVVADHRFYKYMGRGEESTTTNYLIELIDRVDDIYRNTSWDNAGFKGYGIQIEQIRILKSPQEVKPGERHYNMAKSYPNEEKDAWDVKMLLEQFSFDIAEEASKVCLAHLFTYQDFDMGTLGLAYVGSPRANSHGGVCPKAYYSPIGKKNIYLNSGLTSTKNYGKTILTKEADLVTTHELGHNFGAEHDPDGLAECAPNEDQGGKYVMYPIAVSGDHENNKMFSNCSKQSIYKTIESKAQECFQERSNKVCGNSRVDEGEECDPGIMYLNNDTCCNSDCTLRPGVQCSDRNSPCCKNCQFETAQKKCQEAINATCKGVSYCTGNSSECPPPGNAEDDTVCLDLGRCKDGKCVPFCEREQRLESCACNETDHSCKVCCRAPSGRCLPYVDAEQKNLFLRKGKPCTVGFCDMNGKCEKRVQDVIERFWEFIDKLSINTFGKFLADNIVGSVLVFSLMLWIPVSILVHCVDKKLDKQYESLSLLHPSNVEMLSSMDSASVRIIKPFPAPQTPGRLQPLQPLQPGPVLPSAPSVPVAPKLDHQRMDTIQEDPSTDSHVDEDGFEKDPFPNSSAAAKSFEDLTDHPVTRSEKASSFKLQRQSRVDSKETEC
Threshold check on IC50: strictly below 20 nM is Satisfied; on or above 20 nM is Not satisfied.

* COc1cc(COc2ccc3c(c2)NCCN([C@H](CCCCNS(C)(=O)=O)C(=O)NO)S3)cc(OC)c1 | Satisfied
* CCOc1cc(COc2ccc3c(c2)NCCN([C@@H](C(=O)NO)C(C)C)S3)cc(OCC)c1 | Not satisfied
* C[C@H](C(=O)NO)N1CCNc2cc(OCc3cc(Cl)cc(Cl)c3)ccc2S1 | Not satisfied
* CCOc1cc(COc2ccc3c(c2)NCCN([C@H](C)C(=O)NO)S3)cc(OCC)c1 | Not satisfied
* COc1cc(COc2ccc3c(c2)NCCN([C@H](CC(C)C)C(=O)NO)S3)cc(OC)c1 | Satisfied
* COC(=O)CC[C@H](C(=O)NO)N1CCNc2cc(OCc3cc(OC)cc(OC)c3)ccc2S1 | Not satisfied
* CCOc1cc(COc2ccc3c(c2)NCCN([C@H](CCCC(=O)OC)C(=O)NO)S3)cc(OCC)c1 | Satisfied
* COc1cc(COc2ccc3c(c2)NCCN([C@@H](C(=O)NO)C(C)C)S3)cc(OC)c1 | Satisfied
* CC(C)C[C@H](C(=O)NO)N1CCNc2cc(OCc3ccccc3)ccc2S1 | Not satisfied
* C[C@H](C(=O)NO)N1CCNc2cc(Oc3ccc(C(F)(F)F)cc3)ccc2S1 | Not satisfied
* COc1cc(COc2ccc3c(c2)NCCN([C@H](C)C(=O)NO)S3)cc(OC)c1 | Not satisfied
* CCOc1cc(COc2ccc3c(c2)NCCN([C@H](CCC(=O)OC)C(=O)NO)S3)cc(OCC)c1 | Not satisfied
* COC(=O)CCC[C@H](C(=O)NO)N1CCNc2cc(OCc3cc(OC)cc(OC)c3)ccc2S1 | Satisfied
* Cc1nc(COc2ccc3c(c2)NCCN([C@@H](C(=O)NO)C(C)C)S3)sc1C | Not satisfied
* CC(C)C[C@H](C(=O)NO)N1CCNc2cc(O)ccc2S1 | Not satisfied
* C[C@H](C(=O)NO)N1CCNc2cc(Oc3cccc([N+](=O)[O-])c3)ccc2S1 | Not satisfied
* C[C@H](C(=O)NO)N1CCNc2cc(Oc3ccc([N+](=O)[O-])cc3)ccc2S1 | Satisfied
* Cc1cc(COc2ccc3c(c2)NCCN([C@H](C)C(=O)NO)S3)cc(C)n1 | Not satisfied
